- system: LSD1 (Homo sapiens)
- Construct: made in house; host or cells: Escherichia coli Rosetta 2 (pET15b)
- assay_details: HRP-coupled fluorescence LSD1 demethylation activity and inhibition assay, substrate H3_1-21 K4(Me)
- Format: biochemical
- measurement_setup: 100 μM; supplement sheet SMILES and Activity; read-out: Inhibition at 100 μM (%)
Bridge positions count the residues as written; N and C are the ends. Peptide text beside a SMILES is read from it.
parameter_measured: inhibition at 100 µM (%)
Give just the numeric value; % need not be written.

CSCC[C@H](NC(=O)[C@@H]1C/C=C\C[C@H](N)C(=O)N[C@@H](CCCNC(=N)N)C(=O)N1)C(=O)N[C@@H](CCC(N)=O)C(=O)N[C@H](C(=O)N[C@@H](C)C(=O)N[C@@H](CCCNC(=N)N)C(=O)N[C@@H](CCCCN)C(=O)N[C@@H](CO)C(=O)N[C@H](C(N)=O)[C@@H](C)O)[C@@H](C)O [Peptide 19]; 100
CSCC[C@@H]1NC(=O)[C@@H](NC(=O)[C@H](CCCNC(=N)N)NC(=O)[C@@H]2CCCN2)CCC(=O)NCCCC[C@@H](C(=O)N[C@@H](C)C(=O)N[C@@H](CCCNC(=N)N)C(=O)N[C@@H](CCCCN)C(=O)N[C@@H](CO)C(=O)N[C@H](C(N)=O)[C@@H](C)O)NC(=O)[C@H](CCC(N)=O)NC1=O [Peptide 30] (H-PREMQKARKST-NH2; lactam 3-6); 75

Let us move to another entry and its inhibition at 100 µM.
Query string: # lookup: inhibition at 100 µM of CSCC[C@@H]1NC(=O)[C@@H](NC(=O)[C@H](CCCNC(=N)N)NC(=O)[C@H](C)N)CCCCNC(=O)CC[C@@H](C(=O)N[C@@H](C)C(=O)N[C@@H](CCCNC(=N)N)C(=O)N[C@@H](CCCCN)C(=O)N[C@@H](CO)C(=O)N[C@H](C(N)=O)[C@@H](C)O)NC(=O)[C@H](CCC(N)=O)NC1=O [Peptide 27]
Result string: 65
